- tested_on: Galectin-3 (Homo sapiens, UniProt P17931)
- Sequence (P17931 whole entry): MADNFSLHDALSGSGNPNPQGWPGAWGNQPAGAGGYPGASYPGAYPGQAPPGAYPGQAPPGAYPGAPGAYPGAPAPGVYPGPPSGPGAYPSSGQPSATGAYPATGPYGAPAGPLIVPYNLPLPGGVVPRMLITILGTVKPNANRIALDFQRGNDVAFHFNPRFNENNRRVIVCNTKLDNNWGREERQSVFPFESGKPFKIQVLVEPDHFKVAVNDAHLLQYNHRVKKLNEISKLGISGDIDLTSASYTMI
- method_summary: Biological Assay: ASSAY BUFFER Composition: 25 mM HEPES, 100 mM NaCl, 0.005% Tween 20, 0.05% BSA prepared in sterile water (all reagents from Sigma). PROTOCOL: The Gal-3 assays were performed in 384 white Opti plates in three replicates at room temperature with gentle shaking at 250-300 rpm From the original stocks, […] working stock concentrations of His-tagged recombinant human Gal-3 (hGal-3) and that of B-ASF were prepared. From the working stock, 20 μl of hGal-3 (15 nM) and 20 μl B-ASF (15 nM) were added to the plates. In Negative Control, only hGal-3 was added. A concentration range of 50× working stocks were prepared for the compounds in 100% DMSO. Aliquots of 1 uL of the compounds were added to the wells and pre-incubated with 20 μl hGal-3 per well for 30 minutes Then 20 μl B-ASF were added and incubated for another 1 hour. To detect the signal, 5 μ(final conc. of 1.0 nM) terbium labelled Anti-His antibody was added and incubated for 30 min followed by adding 5 μ(final conc. of 20 nM) Streptavidin d2 and incubation for another 1 hour. The assay signal was detected using HTRF screen protocol (Excitation wavelength=340 nm, emission wavelength=615 nm/665 nm) on Envision 2104 Multilabel Reader. Data analysed using Toolset and Curve Master. Results are reported in the experimental section (IC50 in μM).
metric: IC50 (nM)

NC(=O)CO[C@@H]1[C@@H](n2cc(-c3cc(F)c(F)c(F)c3)nn2)[C@@H](O)[C@@H](CO)O[C@@H]1Sc1ccc(Cl)c(Cl)c1    200
COCCO[C@@H]1[C@@H](n2cc(-c3cc(F)c(F)c(F)c3)nn2)[C@@H](O)[C@@H](CO)O[C@@H]1Sc1ccc(Cl)c(Cl)c1    224
